# ASSAY REMARKS: In-vivo pharmacokinetic study on SD rats, intravenous and oral
# DETAILS: rat, plasma, PO @ 5 mg/kg, read-out: Half-life period t1/2 (converted)
READOUT KIND: half-life (h)

The following compounds have reported results that may help.
[[record]]
compound = "C[C@H]1Nc2nc3c(cnn3cc2F)C(=O)N[C@H]2C[C@H](C2)Oc2ncc(F)cc21"
readout_kind = "half-life"
endpoint_unit = "h"
value_reported = 3.01

[[record]]
compound = "O=C1N[C@H]2C[C@H](C2)Oc2ncc(F)cc2[C@H]2CCCN2c2nc3c1cnn3cc2F"
readout_kind = "half-life"
endpoint_unit = "h"
value_reported = 0.55


P: C[C@H]1Nc2ccn3ncc(c3n2)C(=O)N[C@H]2C[C@H](C2)Oc2ncc(F)cc21 [Positive control 2, reference compound]
Q: O=C1N[C@H]2C[C@H](C2)Oc2ncc(F)cc2[C@H]2CCCN2c2ccn3ncc1c3n2 (stereo in doubt) [Positive control 1, reference compound]
[ask] Please choose the item with the lower half-life value from this pair: P and Q Identify your selection by its label.
[reply] Q

----------
# Test system: Ba/F3-LMNA-NTRK1-V573I
# ASSAY REMARKS: In-vitro cell viability (CellTiter-Glo), BaF3 cell lines
# Assay type: cell-based
# DETAILS: Mus musculus, 72 hours
READOUT KIND: IC50 (nM)

The following compounds have reported results that may help.
[[record]]
compound = "O=C1N[C@H]2C[C@H](C2)Oc2ncc(F)cc2[C@H]2CCCN2c2ccn3ncc1c3n2 (stereo in doubt) [Positive control 1, reference compound]"
value_reported = 0.2

[[record]]
compound = "O=C1N[C@H]2C[C@H](C2)Oc2ncc(F)cc2[C@H]2CCCN2c2nc3c1cnn3cc2F [Example 2]"
value_reported = 0.3


1: C[C@H]1Nc2nc3c(cnn3cc2F)C(=O)N[C@H]2C[C@H](C2)Oc2ncc(F)cc21 [Example 3]
2: C[C@H]1Nc2ccn3ncc(c3n2)C(=O)N[C@H]2C[C@H](C2)Oc2ncc(F)cc21 [Positive control 2, reference compound]
[ask] Of 1 and 2 , whose reported IC50 is the larger number? Identify your selection by its label.
[reply] 2

----------
# ASSAY REMARKS: Stability test in liver microsomes, mouse
# Assay type: in vitro ADME
# DETAILS: 45 min
READOUT KIND: % Remaining(45 min) (%)

The following compounds have reported results that may help.
[[record]]
compound = "O=C1N[C@H]2C[C@H](C2)Oc2ncc(F)cc2[C@H]2CCCN2c2ccn3ncc1c3n2 (stereo in doubt) [Positive control 1, reference compound]"
endpoint_unit = "%"
value_reported = 16.90

[[record]]
compound = "C[C@@H]1CCc2ncc(F)cc2[C@H]2CCCN2c2ccn3ncc(c3n2)C(=O)N1 [LOXO-195, reference compound]"
endpoint_unit = "%"
value_reported = 1.98

[[record]]
compound = "O=C1N[C@H]2C[C@H](C2)Oc2ncc(F)cc2[C@H]2CCCN2c2nc3c1cnn3cc2F"
endpoint_unit = "%"
value_reported = 9.22

[[record]]
compound = "C[C@@H]1CCc2ncc(F)cc2[C@H]2CCCN2c2nc3c(cnn3cc2F)C(=O)N1"
endpoint_unit = "%"
value_reported = 16.15


a: C[C@H]1Nc2nc3c(cnn3cc2F)C(=O)N[C@H]2C[C@H](C2)Oc2ncc(F)cc21
b: C[C@H]1Nc2ccn3ncc(c3n2)C(=O)N[C@H]2C[C@H](C2)Oc2ncc(F)cc21 [Positive control 2, reference compound]
[ask] Of a and b , whose reported % Remaining(45 min) is the larger number? Identify your selection by its label.
[reply] a
(a: 39.49%, b: 11.64%)

----------
# System: Ba/F3-LMNA-NTRK1
# ASSAY REMARKS: In-vitro cell viability (CellTiter-Glo), BaF3 cell lines
# Format: cell-based
# DETAILS: Mus musculus, 72 hours
READOUT KIND: IC50 (nM)

[[record]]
molecule = "O=C1N[C@H]2C[C@H](C2)Oc2ncc(F)cc2[C@H]2CCCN2c2nc3c1cnn3cc2F [Example 2]"
readout_kind = "IC50"
value_reported = 0.7


1: C[C@H]1Nc2nc3c(cnn3cc2F)C(=O)N[C@H]2C[C@H](C2)Oc2ncc(F)cc21 [Example 3]
2: O=C1N[C@H]2C[C@H](C2)Oc2ncc(F)cc2[C@H]2CCCN2c2ccn3ncc1c3n2 (stereo in doubt) [Positive control 1, reference compound]
3: C[C@H]1Nc2ccn3ncc(c3n2)C(=O)N[C@H]2C[C@H](C2)Oc2ncc(F)cc21 [Positive control 2, reference compound]
[ask] List the 3 entries from lowest IC50 to highest IC50 value. Output the labels ranked as instructed.
[reply] 2, 1, 3

----------
# ASSAY REMARKS: Stability test in liver microsomes, human
# Format: in vitro ADME
READOUT KIND: microsomal CLint at 1 μM (µL/min/mg)

The following compounds have reported results that may help.
[[record]]
compound = "C[C@H]1Nc2ccn3ncc(c3n2)C(=O)N[C@H]2C[C@H](C2)Oc2ncc(F)cc21 [Positive control 2, reference compound]"
endpoint_unit = "µL/min/mg"
value_reported = 16.4

[[record]]
compound = "C[C@@H]1CCc2ncc(F)cc2[C@H]2CCCN2c2nc3c(cnn3cc2F)C(=O)N1 [Example 1]"
endpoint_unit = "µL/min/mg"
value_reported = 170


a: C[C@H]1Nc2nc3c(cnn3cc2F)C(=O)N[C@H]2C[C@H](C2)Oc2ncc(F)cc21 [Example 3]
b: O=C1N[C@H]2C[C@H](C2)Oc2ncc(F)cc2[C@H]2CCCN2c2ccn3ncc1c3n2 (stereo in doubt) [Positive control 1, reference compound]
[ask] Of a and b , whose reported microsomal CLint at 1 μM is the larger number? Identify your selection by its label.
[reply] b

----------
# ASSAY REMARKS: Stability test in liver microsomes, mouse
# Format: in vitro ADME
# DETAILS: 1 μM, 0.5 mg/mL
READOUT KIND: half-life at 1 μM (min)

[[record]]
molecule = "C[C@@H]1CCc2ncc(F)cc2[C@H]2CCCN2c2nc3c(cnn3cc2F)C(=O)N1 [Example 1]"
value_reported = 16.8

[[record]]
molecule = "C[C@H]1Nc2ccn3ncc(c3n2)C(=O)N[C@H]2C[C@H](C2)Oc2ncc(F)cc21 [Positive control 2, reference compound]"
value_reported = 18.9

[[record]]
molecule = "O=C1N[C@H]2C[C@H](C2)Oc2ncc(F)cc2[C@H]2CCCN2c2nc3c1cnn3cc2F [Example 2]"
value_reported = 13


P: C[C@H]1Nc2nc3c(cnn3cc2F)C(=O)N[C@H]2C[C@H](C2)Oc2ncc(F)cc21 [Example 3]
Q: O=C1N[C@H]2C[C@H](C2)Oc2ncc(F)cc2[C@H]2CCCN2c2ccn3ncc1c3n2 (stereo in doubt) [Positive control 1, reference compound]
R: C[C@@H]1CCc2ncc(F)cc2[C@H]2CCCN2c2ccn3ncc(c3n2)C(=O)N1 [LOXO-195, reference compound]
[ask] # rank_down: sort by half-life at 1 μM, max first Output the labels ranked as instructed.
[reply] P, Q, R
(P: 43.2 min, Q: 17.6 min, R: 7.45 min)

----------
# ASSAY REMARKS: Stability test in liver microsomes, rat
# Assay type: in vitro ADME
READOUT KIND: microsomal CLint at 1 μM (µL/min/mg)

[[record]]
molecule = "C[C@@H]1CCc2ncc(F)cc2[C@H]2CCCN2c2nc3c(cnn3cc2F)C(=O)N1 [Example 1]"
value_reported = 189

[[record]]
molecule = "C[C@@H]1CCc2ncc(F)cc2[C@H]2CCCN2c2ccn3ncc(c3n2)C(=O)N1 [LOXO-195, reference compound]"
value_reported = 152

[[record]]
molecule = "O=C1N[C@H]2C[C@H](C2)Oc2ncc(F)cc2[C@H]2CCCN2c2nc3c1cnn3cc2F [Example 2]"
value_reported = 214

[[record]]
molecule = "C[C@H]1Nc2nc3c(cnn3cc2F)C(=O)N[C@H]2C[C@H](C2)Oc2ncc(F)cc21 [Example 3]"
value_reported = 22.8


a: C[C@H]1Nc2ccn3ncc(c3n2)C(=O)N[C@H]2C[C@H](C2)Oc2ncc(F)cc21 [Positive control 2, reference compound]
b: O=C1N[C@H]2C[C@H](C2)Oc2ncc(F)cc2[C@H]2CCCN2c2ccn3ncc1c3n2 (stereo in doubt) [Positive control 1, reference compound]
[ask] Please choose the item with the lower microsomal CLint at 1 μM value from this pair: a and b Identify your selection by its label.
[reply] a
(a: 30 µL/min/mg, b: 123 µL/min/mg)

----------
# ASSAY REMARKS: Stability test in liver microsomes, mouse
# Format: in vitro ADME
READOUT KIND: microsomal CLint at 1 μM (µL/min/mg)

The following compounds have reported results that may help.
[[record]]
compound = "C[C@H]1Nc2nc3c(cnn3cc2F)C(=O)N[C@H]2C[C@H](C2)Oc2ncc(F)cc21"
readout_kind = "microsomal CLint at 1 μM"
value_reported = 32.1

[[record]]
compound = "O=C1N[C@H]2C[C@H](C2)Oc2ncc(F)cc2[C@H]2CCCN2c2nc3c1cnn3cc2F"
readout_kind = "microsomal CLint at 1 μM"
value_reported = 106

[[record]]
compound = "C[C@@H]1CCc2ncc(F)cc2[C@H]2CCCN2c2nc3c(cnn3cc2F)C(=O)N1"
readout_kind = "microsomal CLint at 1 μM"
value_reported = 82.7

[[record]]
compound = "O=C1N[C@H]2C[C@H](C2)Oc2ncc(F)cc2[C@H]2CCCN2c2ccn3ncc1c3n2 (stereo in doubt) [Positive control 1, reference compound]"
readout_kind = "microsomal CLint at 1 μM"
value_reported = 78.6


I: C[C@H]1Nc2ccn3ncc(c3n2)C(=O)N[C@H]2C[C@H](C2)Oc2ncc(F)cc21 [Positive control 2, reference compound]
II: C[C@@H]1CCc2ncc(F)cc2[C@H]2CCCN2c2ccn3ncc(c3n2)C(=O)N1 [LOXO-195, reference compound]
[ask] Please choose the item with the lower microsomal CLint at 1 μM value from this pair: I and II Identify your selection by its label.
[reply] I

Where do the numbers come from? From patent US12428433B2.
